Catalogue of binders with associated Kd
experimental system: recombinant human IL23 (human, UniProt Q9NPF7;P29460)
Sequence (Q9NPF7 20-189, chain 1 of 2): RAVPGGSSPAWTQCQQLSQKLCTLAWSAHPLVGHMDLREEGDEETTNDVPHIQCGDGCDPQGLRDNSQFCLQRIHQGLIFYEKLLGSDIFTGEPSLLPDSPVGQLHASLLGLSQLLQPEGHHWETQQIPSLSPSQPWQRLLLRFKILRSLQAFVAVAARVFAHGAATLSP
Sequence (P29460 23-328, chain 2 of 2): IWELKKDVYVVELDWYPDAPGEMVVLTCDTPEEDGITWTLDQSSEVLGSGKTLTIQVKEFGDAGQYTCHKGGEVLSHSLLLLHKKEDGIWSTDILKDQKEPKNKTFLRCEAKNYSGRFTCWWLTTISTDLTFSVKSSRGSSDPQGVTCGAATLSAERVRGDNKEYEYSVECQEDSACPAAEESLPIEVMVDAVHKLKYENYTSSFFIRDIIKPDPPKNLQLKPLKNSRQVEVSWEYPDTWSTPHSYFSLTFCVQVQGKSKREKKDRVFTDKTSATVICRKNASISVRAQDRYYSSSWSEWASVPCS
assay notes: SPR
assay metric: Kd

- binder: "VH 36-Vk66 IgG1 (antibody, V domains shown) VH: QVQLVQSGAEVKKPGSSVKTSCKASGGTFTDQTIHWVRQRPGQGLEWMGYIYPRDDSPKYNENFKGRVTITADKSTSTAYMELSSLRSEDTAVYYCAIPDRSGYAWFIYWGQGTLVTVSS VL: DIQMTQSPSSLSASVGDRVTITCKASRDVAIAVAWYQQKPGKVPKLLIYWASTRHTGVPSRFSGSGSRTDFTLTISSLQPEDVADYFCHQYSSYPFTFGSGTKLEIK"
  reported value: "< 0.01 nM"
- binder: "VH 02-Vk78 IgG1 (antibody, V domains shown) VH: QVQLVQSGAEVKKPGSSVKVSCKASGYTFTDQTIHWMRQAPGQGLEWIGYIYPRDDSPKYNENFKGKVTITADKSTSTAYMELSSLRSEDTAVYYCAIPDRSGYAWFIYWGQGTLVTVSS VL: DIQMTQSPSSLSASVGDRVTITCKASRDVAIAVAWYQQKPGKVPKLLLFWASTRHTGVPDRFSGSGSRTDFTLTISSLQPEDLADYYCHQYSSYPFTFGSGTKLEIK"
  reported value: "< 0.01 nM"
- binder: "VH 65-Vk78 IgG1 (antibody, V domains shown) VH: QVQLVQSGAEVKKPGSSVKVSCKASGGTFTDQTIHWVRQAPGQGLEWMGYIYPRDDSPKYNENFKGRVTLTADKSTSTAYMELSSLRSEDTAVYFCARPDRSGYAWFIYWGQGTLVTVSS VL: DIQMTQSPSSLSASVGDRVTITCKASRDVAIAVAWYQQKPGKVPKLLLFWASTRHTGVPDRFSGSGSRTDFTLTISSLQPEDLADYYCHQYSSYPFTFGSGTKLEIK"
  reported value: "< 0.01 nM"
- binder: "BI 655066 (VH 02-Vk66 IgG1) (antibody, V domains shown) VH: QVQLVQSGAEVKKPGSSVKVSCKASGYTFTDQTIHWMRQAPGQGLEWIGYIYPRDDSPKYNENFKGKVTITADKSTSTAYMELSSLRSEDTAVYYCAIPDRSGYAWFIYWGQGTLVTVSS VL: DIQMTQSPSSLSASVGDRVTITCKASRDVAIAVAWYQQKPGKVPKLLIYWASTRHTGVPSRFSGSGSRTDFTLTISSLQPEDVADYFCHQYSSYPFTFGSGTKLEIK"
  reported value: "< 0.01 nM"
- binder: "VH 36-Vk65 IgG1 (antibody, V domains shown) VH: QVQLVQSGAEVKKPGSSVKTSCKASGGTFTDQTIHWVRQRPGQGLEWMGYIYPRDDSPKYNENFKGRVTITADKSTSTAYMELSSLRSEDTAVYYCAIPDRSGYAWFIYWGQGTLVTVSS VL: DIQMTQSPSSLSASVGDRVTITCKASRDVAIAVAWYQQKPGKVPKLLLFWASTRHTGVPDRFSGSGSGTDFTLTISSLQPEDLADYYCHQYSSYPFTFGQGTKLEIK"
  reported value: "0.096 nM"
- binder: "BI 655067 (VH 05-Vk65 IgG1) (antibody, V domains shown) VH: QVQLVQSGAEVKKPGSSVKVSCKASGFTFTDQTIHWVRQAPGQGLEWMGYIYPRDDSPKYNENFKGKVTLTADKSTSTAYMELSSLRSEDTAVYYCAIPDRSGYAWFIYWGQGTLVTVSS VL: DIQMTQSPSSLSASVGDRVTITCKASRDVAIAVAWYQQKPGKVPKLLLFWASTRHTGVPDRFSGSGSGTDFTLTISSLQPEDLADYYCHQYSSYPFTFGQGTKLEIK"
  reported value: "< 0.01 nM"
- binder: "VH 65-Vk65 IgG1 (antibody, V domains shown) VH: QVQLVQSGAEVKKPGSSVKVSCKASGGTFTDQTIHWVRQAPGQGLEWMGYIYPRDDSPKYNENFKGRVTLTADKSTSTAYMELSSLRSEDTAVYFCARPDRSGYAWFIYWGQGTLVTVSS VL: DIQMTQSPSSLSASVGDRVTITCKASRDVAIAVAWYQQKPGKVPKLLLFWASTRHTGVPDRFSGSGSGTDFTLTISSLQPEDLADYYCHQYSSYPFTFGQGTKLEIK"
  reported value: "0.107 nM"
- binder: "BI 655069 (VH 05-Vk66 IgG1) (antibody, V domains shown) VH: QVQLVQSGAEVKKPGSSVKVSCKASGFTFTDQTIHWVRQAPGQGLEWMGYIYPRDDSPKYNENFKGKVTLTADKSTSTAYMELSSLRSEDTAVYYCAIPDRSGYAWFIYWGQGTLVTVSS VL: DIQMTQSPSSLSASVGDRVTITCKASRDVAIAVAWYQQKPGKVPKLLIYWASTRHTGVPSRFSGSGSRTDFTLTISSLQPEDVADYFCHQYSSYPFTFGSGTKLEIK"
  reported value: "0.036 nM"
- binder: "VH 65-Vk66 IgG1 (antibody, V domains shown) VH: QVQLVQSGAEVKKPGSSVKVSCKASGGTFTDQTIHWVRQAPGQGLEWMGYIYPRDDSPKYNENFKGRVTLTADKSTSTAYMELSSLRSEDTAVYFCARPDRSGYAWFIYWGQGTLVTVSS VL: DIQMTQSPSSLSASVGDRVTITCKASRDVAIAVAWYQQKPGKVPKLLIYWASTRHTGVPSRFSGSGSRTDFTLTISSLQPEDVADYFCHQYSSYPFTFGSGTKLEIK"
  reported value: "< 0.01 nM"
- binder: "BI 655068 (VH 02-Vk65 IgG1) (antibody, V domains shown) VH: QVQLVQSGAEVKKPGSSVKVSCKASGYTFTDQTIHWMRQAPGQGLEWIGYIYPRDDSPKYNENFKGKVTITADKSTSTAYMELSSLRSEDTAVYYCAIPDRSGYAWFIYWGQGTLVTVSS VL: DIQMTQSPSSLSASVGDRVTITCKASRDVAIAVAWYQQKPGKVPKLLLFWASTRHTGVPDRFSGSGSGTDFTLTISSLQPEDLADYYCHQYSSYPFTFGQGTKLEIK"
  reported value: "0.015 nM"
- binder: "VH 36-Vk78 IgG1 (antibody, V domains shown) VH: QVQLVQSGAEVKKPGSSVKTSCKASGGTFTDQTIHWVRQRPGQGLEWMGYIYPRDDSPKYNENFKGRVTITADKSTSTAYMELSSLRSEDTAVYYCAIPDRSGYAWFIYWGQGTLVTVSS VL: DIQMTQSPSSLSASVGDRVTITCKASRDVAIAVAWYQQKPGKVPKLLLFWASTRHTGVPDRFSGSGSRTDFTLTISSLQPEDLADYYCHQYSSYPFTFGSGTKLEIK"
  reported value: "< 0.01 nM"
